molecular target: HERG (Homo sapiens, UniProt Q12809); assay: HERG Patch Clamp EP; conditions: human, HEK cells stably overexpressing HERG
Sequence (Q12809 whole entry): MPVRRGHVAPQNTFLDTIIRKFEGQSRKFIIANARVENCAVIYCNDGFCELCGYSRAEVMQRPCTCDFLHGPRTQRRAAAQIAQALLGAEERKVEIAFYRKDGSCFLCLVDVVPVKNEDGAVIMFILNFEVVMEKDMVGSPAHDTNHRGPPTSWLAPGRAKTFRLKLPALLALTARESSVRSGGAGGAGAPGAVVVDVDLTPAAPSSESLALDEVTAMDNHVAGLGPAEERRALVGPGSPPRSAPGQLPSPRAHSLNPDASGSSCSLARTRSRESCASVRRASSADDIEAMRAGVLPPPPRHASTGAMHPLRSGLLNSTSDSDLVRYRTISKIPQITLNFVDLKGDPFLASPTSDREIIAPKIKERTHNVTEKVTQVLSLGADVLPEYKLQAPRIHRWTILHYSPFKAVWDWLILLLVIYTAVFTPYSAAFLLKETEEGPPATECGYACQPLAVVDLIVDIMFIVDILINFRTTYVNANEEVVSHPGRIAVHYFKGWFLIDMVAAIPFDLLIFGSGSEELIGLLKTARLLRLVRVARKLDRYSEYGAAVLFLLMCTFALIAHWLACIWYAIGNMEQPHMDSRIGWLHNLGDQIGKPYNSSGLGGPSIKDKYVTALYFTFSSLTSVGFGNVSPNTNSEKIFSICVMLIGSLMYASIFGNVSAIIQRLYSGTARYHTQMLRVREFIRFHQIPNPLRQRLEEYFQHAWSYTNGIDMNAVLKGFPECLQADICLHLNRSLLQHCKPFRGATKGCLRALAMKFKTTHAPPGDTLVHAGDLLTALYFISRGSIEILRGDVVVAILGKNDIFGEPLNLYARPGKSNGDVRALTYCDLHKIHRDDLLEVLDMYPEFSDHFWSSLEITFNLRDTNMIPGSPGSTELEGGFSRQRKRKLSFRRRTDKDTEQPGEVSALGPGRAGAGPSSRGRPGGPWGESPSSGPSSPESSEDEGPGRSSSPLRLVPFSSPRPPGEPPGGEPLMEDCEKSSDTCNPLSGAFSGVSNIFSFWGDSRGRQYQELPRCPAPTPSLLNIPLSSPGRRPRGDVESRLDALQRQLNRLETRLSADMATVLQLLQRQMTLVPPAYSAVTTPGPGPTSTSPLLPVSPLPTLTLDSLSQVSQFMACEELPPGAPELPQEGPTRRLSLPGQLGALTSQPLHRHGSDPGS
Note to self: values exactly at 40% are true. So inhibition at 10 µM at or above 40% is true, below is false.

- COc1ccc(CCN2C(=O)N(NS(=O)(=O)Cc3cccnc3)CC2c2ccc(OC(F)F)cc2)cc1 (centres unmarked) [Compound 42]: true
- COc1ccc(CCN2C(=O)N(NS(=O)(=O)Cc3ccccc3)CC2c2ccc(C)c(C)c2)cc1 (centres unmarked) [Compound 43]: false
- COc1ccc(CCN2C(=O)N(NS(C)(=O)=O)C[C@@H]2c2ccc(C(C)(C)C)cc2)cc1 [Compound 173]: true

// inclusive: inhibition at 10 µM at least 40%? input: COc1ccc(CCCN2C(=O)N(NS(N)(=O)=O)CC2c2ccc(OC)cc2)cc1 (centres unmarked) [Compound 44]
false

// inclusive: inhibition at 10 µM at least 40%? input: COc1ccc(CCN2C(=O)N(NS(C)(=O)=O)CC2Cc2ccc(C(C)(C)C)cc2)cc1 (centres unmarked) [Compound 11]
true

// inclusive: inhibition at 10 µM at least 40%? input: COc1ccc(CCN2C(=O)N(NCc3cnc4ccccc4c3)CC2c2ccc(C)c(C)c2)cc1 (centres unmarked) [Compound 96]
true

// inclusive: inhibition at 10 µM at least 40%? input: COc1ccc(CCCN2C(=O)N(NS(C)(=O)=O)CC2c2ccc(OC)cc2)cc1 (centres unmarked) [Compound 49]
false

// inclusive: inhibition at 10 µM at least 40%? input: COc1ccc(CCN2C(=O)N(NS(=O)(=O)Cc3cccnc3)CC2c2ccc(C3CC3)cc2)cc1 (centres unmarked) [Compound 64]
true

----------
inhibition at 1 µM by entry:
target: Kv1.5 (Homo sapiens, UniProt P22460); construct: expressed in transfected cells; host or cells: HEK or LTK- cells; assay: Kv1.5 Patch Clamp EP; type: cell-based; settings: 1.0 μM, single point; whole cell patch clamp, Kv1.5 stably over expressed in HEK or LTK- cells
Sequence (P22460 whole entry): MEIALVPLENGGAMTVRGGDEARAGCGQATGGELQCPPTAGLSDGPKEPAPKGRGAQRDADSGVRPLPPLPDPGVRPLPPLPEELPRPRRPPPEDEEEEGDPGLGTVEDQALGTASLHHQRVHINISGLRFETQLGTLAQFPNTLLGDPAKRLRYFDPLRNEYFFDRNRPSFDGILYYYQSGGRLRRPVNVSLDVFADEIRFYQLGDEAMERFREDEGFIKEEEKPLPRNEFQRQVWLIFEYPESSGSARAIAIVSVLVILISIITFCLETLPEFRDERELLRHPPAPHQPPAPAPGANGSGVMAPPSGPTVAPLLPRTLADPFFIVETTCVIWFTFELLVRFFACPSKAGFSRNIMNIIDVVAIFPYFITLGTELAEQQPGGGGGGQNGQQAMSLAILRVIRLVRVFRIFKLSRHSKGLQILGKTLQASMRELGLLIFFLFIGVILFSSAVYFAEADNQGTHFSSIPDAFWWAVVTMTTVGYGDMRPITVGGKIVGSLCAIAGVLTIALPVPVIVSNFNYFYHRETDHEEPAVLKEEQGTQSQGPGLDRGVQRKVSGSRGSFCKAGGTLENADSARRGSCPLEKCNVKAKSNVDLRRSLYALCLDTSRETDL
Please give a number only; it is taken to be in %.

# example entries with known answers
* COc1ccc(CCN2C(=O)N(NS(C)(=O)=O)CC2c2ccc(OC)c(C)c2)cc1 (centres unmarked) | 82
* COc1ccc(CCN2C(=O)N(NS(=O)(=O)C3CC3)CC2c2ccc(OC)cc2)cc1 (centres unmarked) | 85
* COc1ccc(CCN2C(=O)N(NC(N)=O)CC2c2ccc(C)c(C)c2)cc1 (centres unmarked) | 22
* COc1ccc(CCN2C(=O)N(NS(=O)(=O)CC#N)CC2c2ccc3c(c2)OCCO3)cc1 (centres unmarked) | 70
* COc1ccc(CCN2C(=O)N(NCc3ccc(F)cc3)CC2c2ccc(C)c(C)c2)cc1 (centres unmarked) | 85

GET /value?item= COc1ccc(CCN2C(=O)N(NS(C)(=O)=O)CC2c2ccc(C(F)(F)F)cc2)cc1 (centres unmarked) &field=inhibition at 1 µM returns 30

GET /value?item= "COc1ccc(CCN2C(=O)N(NS(C)(=O)=O)C[C@@H]2c2ccc(OC)cc2)cc1" &field=inhibition at 1 µM returns 41

GET /value?item= COc1ccc(CCN2C(=O)N(NC(=O)CN(C)Cc3ccccc3)CC2c2ccc(C(C)(C)C)cc2)cc1 (centres unmarked) &field=inhibition at 1 µM returns 78

----------
molecular target: Kv1.5 (Homo sapiens); construct: expressed in transfected cells; host or cells: HEK or LTK- cells; assay: Kv1.5 Patch Clamp EP; format: cell-based; settings: 1.0 μM, single point; whole cell patch clamp, Kv1.5 stably over expressed in HEK or LTK- cells
parameter: inhibition at 1 µM (%)
Please give a number only; it is taken to be in %.

- COc1ccc(CCN2C(=O)N(NCc3ccc(-n4ccnc4)cc3)CC2c2ccc(C)c(C)c2)cc1 (centres unmarked) [Compound 98]: 83

Considering COc1ccc(CCN2C(=O)N(NS(=O)(=O)Cc3cccnc3)CC2C2(c3ccccc3)CC2)cc1 (centres unmarked) [Compound 134] , its inhibition at 1 µM with Kv1.5 (Homo sapiens) was recorded as 22

Considering COc1ccc(CCN2C(=O)N(NS(C)(=O)=O)CC2c2ccc(OC)cc2)cc1 (centres unmarked) [Compound 23] , its inhibition at 1 µM with Kv1.5 (Homo sapiens) was recorded as 66

Considering COc1ccc(CCN2C(=O)N(N3CCN(C(=O)N(C)C)CC3)CC2c2ccc(C(C)(C)C)cc2)cc1 (centres unmarked) [Compound 130] , its inhibition at 1 µM with Kv1.5 (Homo sapiens) was recorded as 37

Considering COc1ccc(CCN2C(=O)N(NS(C)(=O)=O)CC2Cc2ccc(C(C)(C)C)cc2)cc1 (centres unmarked) [Compound 11] , its inhibition at 1 µM with Kv1.5 (Homo sapiens) was recorded as 95

Considering COc1ccc(CCN2C(=O)N(N(C)S(=O)(=O)Cc3ccccc3)CC2c2ccc(C)c(C)c2)cc1 (centres unmarked) [Compound 67] , its inhibition at 1 µM with Kv1.5 (Homo sapiens) was recorded as 90

Considering COc1ccc(CCN2C(=O)N(NS(=O)(=O)CC(=O)N(C)C)CC2c2ccc(OC)cc2)cc1 (centres unmarked) [Compound 55] , its inhibition at 1 µM with Kv1.5 (Homo sapiens) was recorded as 29

Considering COc1ccc(CCN2C(=O)N(NS(=O)(=O)CC(N)=O)CC2c2ccc(OC)cc2)cc1 (centres unmarked) [Compound 115] , its inhibition at 1 µM with Kv1.5 (Homo sapiens) was recorded as 5

----------
biological target: Kv1.5 (Homo sapiens, UniProt P22460); construct: expressed in transfected cells; host or cells: HEK or LTK- cells; assay: Kv1.5 Patch Clamp EP; type: cell-based; details: 1.0 μM, single point; whole cell patch clamp, Kv1.5 stably over expressed in HEK or LTK- cells
Note to self: values exactly at 80% are MET. So inhibition at 1 µM at or above 80% is MET, below is NOT MET.

- COc1ccc(CCN2C(=O)N(NS(=O)(=O)Cc3cccnc3)CC2c2ccc(OC)cc2)cc1 (centres unmarked): MET
- COc1ccc(CCN2C(=O)N(NS(=O)(=O)CF)CC2c2ccc3c(c2)OCCO3)cc1 (centres unmarked): MET
- COc1ccc(CCN2C(=O)N(NS(C)(=O)=O)CC2C2CCCCC2)cc1 (centres unmarked): NOT MET
- CCCCS(=O)(=O)NN1CC(c2ccc(C(C)(C)C)cc2)N(CCc2ccc(OC)cc2)C1=O (centres unmarked): NOT MET
- COCCN(CCOC)C(=O)CS(=O)(=O)NN1CC(c2ccc(C3CC3)cc2)N(CCc2ccc(OC)cc2)C1=O (centres unmarked): NOT MET

// inclusive: inhibition at 1 µM at least 80%? input: COc1ccc(CCN2C(=O)N(NS(=O)(=O)CC(=O)N(C)CC(=O)N(C)C)CC2c2ccc(C3CC3)cc2)cc1 (centres unmarked)
NOT MET

// inclusive: inhibition at 1 µM at least 80%? input: COc1ccc(CCCN2C(=O)N(N)CC2c2ccc(OC)cc2)cc1 (centres unmarked)
NOT MET

----------
target: UniProtKB Q12809; experiment: HERG Patch Clamp EP; details: human, HEK cells stably overexpressing HERG
parameter: inhibition at 10 µM (%)
Please give a number only; it is taken to be in %.

# example entries with known answers
- COc1ccc(CCN2C(=O)N(NS(=O)(=O)C3CC3)CC2c2ccc(OC)cc2)cc1 (stereo not shown): 31
- COc1ccc(CCN2C(=O)N(NS(=O)(=O)CC#N)CC2c2ccc3c(c2)OCCO3)cc1 (stereo not shown): 1
- COCCN(N1CC(c2ccc(C3CC3)cc2)N(CCc2ccc(OC)cc2)C1=O)S(C)(=O)=O (stereo not shown): 48

GET /value?item= COc1ccc(CCN2C(=O)N(NC(=O)CS(=O)(=O)N(C)C)CC2c2ccc(C3CC3)cc2)cc1 (stereo not shown) &field=inhibition at 10 µM returns 42

----------
Molecular target: Kv1.5 (Homo sapiens, UniProt P22460)
Construct: expressed in transfected cells; host or cells: HEK or LTK- cells
Assay: Kv1.5 Patch Clamp EP
Format: cell-based
Conditions: 1.0 μM, single point; whole cell patch clamp, Kv1.5 stably over expressed in HEK or LTK- cells
Experimental: The external solution is standard Tyrodes solution. […] Inhibition was measured at the end of the 1 second pulses and expressed relative to controls. Initial Kv1.5 inhibition is estimated by single point determinations done at 1 μM.
parameter: inhibition at 1 µM (%)
Please give a number only; it is taken to be in %.

# example entries with known answers
- COc1ccc(CCN2C(=O)N(NS(=O)(=O)Cc3cccnc3)CC2c2ccc(C3CC3)cc2)cc1 (stereo not shown): 96
- COc1ccc(CCN2C(=O)N(NS(N)(=O)=O)CC2c2ccc(C)c(C)c2)cc1 (stereo not shown): 90
- COc1ccc(CCN2C(=O)N(NS(=O)(=O)CC(=O)OCC3c4ccccc4-c4ccccc43)CC2c2ccc(C3CC3)cc2)cc1 (stereo not shown): 6

GET /value?item= "COc1ccc(CCN2C(=O)N(NS(C)(=O)=O)C[C@@H]2c2ccc(OC(F)F)cc2)cc1" &field=inhibition at 1 µM returns 71

GET /value?item= COc1ccc(CCN2C(=O)N(NS(=O)(=O)CS(C)(=O)=O)CC2c2ccc(C3CC3)cc2)cc1 (stereo not shown) &field=inhibition at 1 µM returns 85

GET /value?item= COc1ccc(CCN2C(=O)N(NS(C)(=O)=O)CC2c2ccc(OC)c(OC)c2)cc1 (stereo not shown) &field=inhibition at 1 µM returns 10

GET /value?item= COc1ccc(CCN2C(=O)N(NC(=O)C3CC3)CC2c2ccc(C)c(C)c2)cc1 (stereo not shown) &field=inhibition at 1 µM returns 81
